Molecular target: human FLT-3 (Arg571-Ser993) (Homo sapiens, UniProt P36888)
Construct: human FLT-3 (Arg571-Ser993); GST (N); purchased Cell Signaling Technology; host or cells: baculovirus expression system
Sequence (P36888 571-993): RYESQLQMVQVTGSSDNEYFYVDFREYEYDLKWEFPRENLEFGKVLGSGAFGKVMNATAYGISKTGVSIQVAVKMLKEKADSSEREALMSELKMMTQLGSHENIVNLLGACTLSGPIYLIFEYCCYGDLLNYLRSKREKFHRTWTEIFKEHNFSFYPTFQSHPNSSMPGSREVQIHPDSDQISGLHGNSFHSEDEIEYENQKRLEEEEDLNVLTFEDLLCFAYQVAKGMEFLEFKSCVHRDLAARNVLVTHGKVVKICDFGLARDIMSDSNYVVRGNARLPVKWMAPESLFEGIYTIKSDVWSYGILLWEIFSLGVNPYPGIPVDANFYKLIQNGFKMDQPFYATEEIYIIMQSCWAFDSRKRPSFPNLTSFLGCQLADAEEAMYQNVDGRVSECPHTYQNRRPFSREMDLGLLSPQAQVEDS
Assay: FLT-3 kinase assay (HTScan kit, DELFIA)
Format: biochemical
Conditions: compound at 0.1 μM; read-out: FLT-3 0.1 μM, % of inhibition relative to control
Below, each entry is listed alongside its reported inhibition at 0.1 µM.
# output: bare number, implied unit %

Answered cases to consult:
compound	inhibition at 0.1 µM / %
O=C1Nc2ccc(Cl)cc2/C1=C/c1ccc2cccccc1-2	18.6
O=C1Nc2ccc(F)cc2/C1=C\c1cc2cccccc-2c1	84.3
Cc1cc(C=C2C(=O)Nc3ncccc32)c2ccccc(OCCCN(C)C)c1-2	14.6

Exam item: GET /values?readout=inhibition at 0.1 µM&item= O=C1Nc2ccccc2/C1=C\c1c2cccccc-2[nH]c1=O
Marked response: 8.6

Exam item: Same question for Cc1cc(C=C2C(=O)Nc3c(F)cccc32)c2ccccc(OCCCN(C)C)c1-2 please.
Marked response: 7.3

Exam item: Subsequent entry: Cc1cc(/C=C2\C(=O)Nc3ccc(F)cc32)c2cccccc1-2
Marked response: 45.6

Exam item: Entry Cc1cc(/C=C2/C(=O)Nc3ccc(F)cc32)c2ccccc(OCCCN(C)C)c1-2 please
Marked response: 74.3

Exam item: Quick one: CN(C)Cc1cc(/C=C2/C(=O)Nc3ccccc32)c2cccccc1-2
Marked response: 16.5

Exam item: For Cc1cc(C=C2C(=O)Nc3ccccc32)c2cccccc1-2 then?
Marked response: 5.9

Exam item: Similarly, O=C1Nc2ccc(F)cc2/C1=C\c1ccc2cccc-2cc1 ?
Marked response: 30.6

Exam item: Query Cc1cc(C=C2C(=O)Nc3ccccc32)c2ccccc(OCCCN(C)C)c1-2 next
Marked response: 46.1

Exam item: Proceed to COC(=O)C1C2=CC=CC=C(OC)C2=C(/C=C2\C(=O)Nc3ccc(F)cc32)C1OC (stereo not drawn)
Marked response: 17.2

Exam item: Try Cc1cc(/C=C2/C(=O)N(Cc3ccccc3)c3ccccc32)c2c(C)ccc(C(C)C)cc1-2 next.
Marked response: 4.4

Exam item: Likewise for CNS(=O)(=O)c1ccc2c(c1)/C(=C\c1cc(C)c3c(OCCCN(C)C)ccccc1-3)C(=O)N2 ?
Marked response: 24.2

Exam item: Try this compound too: O=C1Nc2ccc(F)cc2/C1=C\c1cc(Br)c2cccccc1-2
Marked response: 38.4

Exam item: What about this compound? O=C1Nc2ccc(-c3ccccc3)cc2/C1=C/c1ccc2cccccc1-2
Marked response: 0.8

Exam item: Field entry: Cc1cc(/C=C2\C(=O)Nc3ccc(F)cc32)c2ccccc(OCCCN(C)C)c1-2
Marked response: 70.9

Exam item: Item: CCc1cc(C=C2C(=O)Nc3ccc(F)cc32)c2cccccc1-2
Marked response: 17.6

---

Biological target: human c-KIT (Thr544-Val976) (Homo sapiens, UniProt P10721)
Construct: human c-KIT (Thr544-Val976); GST (N)
Sequence (P10721 544-976): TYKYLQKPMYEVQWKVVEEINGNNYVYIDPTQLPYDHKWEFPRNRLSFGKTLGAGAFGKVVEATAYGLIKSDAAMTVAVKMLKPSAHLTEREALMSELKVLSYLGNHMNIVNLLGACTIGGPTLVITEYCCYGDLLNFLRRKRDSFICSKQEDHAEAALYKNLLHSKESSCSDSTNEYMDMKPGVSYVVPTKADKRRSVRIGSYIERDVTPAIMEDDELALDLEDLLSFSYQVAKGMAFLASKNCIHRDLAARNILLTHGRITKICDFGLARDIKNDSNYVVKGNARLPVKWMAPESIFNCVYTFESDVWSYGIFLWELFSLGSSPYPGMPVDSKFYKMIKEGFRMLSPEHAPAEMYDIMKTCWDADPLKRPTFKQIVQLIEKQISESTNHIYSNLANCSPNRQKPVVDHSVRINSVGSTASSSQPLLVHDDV
Experiment: c-KIT kinase assay (HTScan kit, DELFIA)
Conditions: read-out: c-KIT kinase inhibition (IC50)
Binary call on IC50 with cut-off 80 nM: strictly below means Satisfied, and equality or higher means Not satisfied.

Exam item: Take the compound Cc1cc(/C=C2\C(=O)Nc3ccc(F)cc32)c2cccccc1-2 [Compound 39] and say whether its IC50 is less than 80 nM.
Marked response: Not satisfied

Exam item: How about Cc1cc(/C=C2\C(=O)Nc3ccc(F)cc32)c2ccccc(OCCCN(C)C)c1-2 [Compound 95] ?
Marked response: Not satisfied

Exam item: // same read-out, input: O=C1Nc2ccc(F)cc2/C1=C/c1cc2cccccc-2c1 [Compound 41]
Marked response: Satisfied

Exam item: // query: Cc1cc(/C=C2/C(=O)Nc3ccc(F)cc32)c2ccccc(OCCCN(C)C)c1-2 [Compound 68]
Marked response: Not satisfied

Exam item: Similarly, Cc1cc(C=C2C(=O)Nc3ccc(F)cc32)c2ccccc(OCCCN3CCOCC3)c1-2 (mixture of isomers) [Compound 87] ?
Marked response: Satisfied
